Reported melting point by item:

# annotated cases, reported melting point shown
N#Cc1cc(F)ccc1N=C=O | 31 to 33 °C
O=C(O)c1cc(-c2cccnc2)nc2nc(N3CCCC3)sc12 | 329 to 331 °C
NCc1cccnc1N1CCOCC1 | 41 to 43 °C
O=[N+]([O-])c1cn[nH]c1C1CC1 | 95 to 97 °C
O=S1(=O)CCC(S(=O)(=O)Cl)C1 (centres undefined) | 114 to 116 °C
O=Cc1ccc(Oc2ccc([N+](=O)[O-])cc2Cl)c(F)c1 | 81 to 83 °C
CC(C)NC(=O)Nc1ccc(CN)cc1 | 133 to 135 °C
COc1cccc(-c2noc(CCl)n2)c1 | 38 to 40 °C
CC(C)Cn1c(=O)n(C)c(=O)c2cc(C(=O)O)cnc21 | 219 to 221 °C
N#Cc1ccc(C(=O)O)[nH]1 | 239 to 241 °C

Identify measured melting point associated with COc1cc(C(=O)O)c(N)cc1OC(F)F
152 to 154 °C

Identify measured melting point associated with CCC(=O)c1c(C)nn(CCS(C)(=O)=O)c1C
154 to 156 °C

Identify measured melting point associated with O=C(O)C1CCCN(C(=O)c2ccc(Cl)c(Cl)c2)C1 (centres undefined)
163 to 165 °C

Identify measured melting point associated with CCC(C)Oc1ccc(C(=O)O)cc1 (centres undefined)
118 to 120 °C

Identify measured melting point associated with ClCc1ccc(Oc2cccc(Cl)c2Cl)cc1
62 to 64 °C

====

Reported melting point by item:

NC(=O)CCOc1ccc(N)cc1 | 110 to 112 °C
Cc1cccc(-c2nnc(N)[nH]2)n1 | 206 to 208 °C
Cc1cnc2ccccc2c1Cl | 57 to 59 °C
COc1cccc(-n2c(C)nnc2SCC(=O)O)c1 | 130 to 132 °C
CCc1nnc2ccc(Cl)nn12 | 100 to 102 °C

Identify measured melting point associated with COc1ccccc1-c1cccc(N)c1
66 to 68 °C

Identify measured melting point associated with CC(C)Cn1cnc2c1c(=O)[nH]c(=O)n2Cc1ccccc1
179 to 181 °C

Identify measured melting point associated with CCC(Nc1ccccc1)C(=O)O (stereo unspecified)
139 to 141 °C

Identify measured melting point associated with Cc1cc(C)c(S(=O)(=O)N2CCC(C(=O)O)CC2)c(C)c1
181 to 183 °C

Identify measured melting point associated with N#CCC(=O)c1ccsc1
92 to 94 °C

Identify measured melting point associated with CS(=O)(=O)c1cccc(NN)c1
93 to 95 °C

====

Observation Type: melting point

# annotated cases, reported melting point shown
Cc1ccc(-c2nc(C)c(C(C)O)s2)cc1 (centres undefined) | 111 to 113 °C
O=C(O)c1ccc(OCC(F)(F)F)nn1 | 143 to 145 °C

In the following, a different compound is considered.
Identify measured melting point associated with COc1ccc(CCNC(C)=O)cc1S(=O)(=O)Cl
76 to 78 °C

====

Reported melting point by item:

O=C(O)c1ccc(N2CCOCC2)c([N+](=O)[O-])c1 | 186 to 188 °C
O=C(O)CCSc1ccc(F)cc1 | 76 to 78 °C

Identify measured melting point associated with O=Cc1ccc(Br)cc1[N+](=O)[O-]
95 to 100 °C

Identify measured melting point associated with COCc1nc(OC)c2c(C)c(C(=O)O)sc2n1
188 to 190 °C

Identify measured melting point associated with N#CCN1CCOCC1
62 to 64 °C

Identify measured melting point associated with O=C(NC(CO)C(=O)O)c1ccccc1 (configuration not stated)
159 to 161 °C

Identify measured melting point associated with CCC(Nc1nnnn1-c1ccccc1)C(=O)O (configuration not stated)
149 to 151 °C

Identify measured melting point associated with N#Cc1ccc(NCCO)cc1
84 to 86 °C
